- Test summary: Antioxidant activity assessed as DPPH free radical scavenging activity at 0.5 mg/ml incubated for 20 mins in dark (reference value: 1 to 9 %)
- Assay type: functional
Assign yes whenever Activity does not fall below 20%; assign no whenever it does.

>  <Compound>
CC(C)[C@@H]1CC[C@@H](C)C[C@@]12N(C)C(=O)[C@@H]1[C@H]3C(=O)N(c4ccccc4)C(=O)[C@H]3ON12

>  <Label>
yes

$$$$
>  <Compound>
Cc1ccc(N2C(=O)[C@H]3[C@H](ON4[C@@H]3C(=O)N(C)[C@@]43C[C@H](C)CC[C@H]3C(C)C)C2=O)c(C)c1

>  <Label>
yes

$$$$
>  <Compound>
Cc1cccc(N2C(=O)[C@H]3[C@H](ON4[C@@H]3C(=O)N(C)[C@@]43C[C@H](C)CC[C@H]3C(C)C)C2=O)c1

>  <Label>
yes

$$$$
>  <Compound>
Cc1cc(C(C)(C)C)c(O)c(C(C)(C)C)c1 [BUTYLATED HYDROXYTOLUENE]

>  <Label>
yes

$$$$

API: above_or_equal(metric=Activity, cutoff=20%) for item CC(C)[C@@H]1CC[C@@H](C)C[C@@]12N(C)C(=O)[C@@H]1[C@H]3C(=O)N(c4ccc(Cl)cc4)C(=O)[C@H]3ON12
no

Assess whether reported Activity for COc1ccc(N2C(=O)[C@H]3[C@H](ON4[C@@H]3C(=O)N(C)[C@@]43C[C@H](C)CC[C@H]3C(C)C)C2=O)cc1 sits at 20% or higher.
yes

Hello, I need to know if CC(C)[C@@H]1CC[C@@H](C)C[C@@]12N(C)C(=O)[C@@H]1[C@H]3C(=O)NC(=O)[C@H]3ON12 has measured Activity not below 20%. Thanks!
yes

Check the entry CC(C)[C@@H]1CC[C@@H](C)C[C@@]12N(C)C(=O)[C@@H]1[C@H]3C(=O)N(C)C(=O)[C@H]3ON12 : does Activity equal or exceed 20%?
no

Dear colleague, could you confirm whether CC(C)[C@@H]1CC[C@@H](C)C[C@@]12N(C)C(=O)[C@@H]1[C@H]3C(=O)N(c4ccc5ccccc5c4)C(=O)[C@H]3ON12 has Activity at or above 20%?
no

----------
- Test summary: Antioxidant activity assessed as DPPH free radical scavenging activity at 3 mg/ml incubated for 20 mins in dark (reference value: 1 to 9%)
- Assay type: functional
Short version: Activity at least 70% is 1, less is 0.

>  <Compound>
CC(C)[C@@H]1CC[C@@H](C)C[C@@]12N(C)C(=O)[C@@H]1[C@H]3C(=O)N(c4ccc5ccccc5c4)C(=O)[C@H]3ON12

>  <Label>
0

$$$$
>  <Compound>
CC(C)[C@@H]1CC[C@@H](C)C[C@@]12N(C)C(=O)[C@@H]1[C@H]3C(=O)NC(=O)[C@H]3ON12

>  <Label>
1

$$$$
>  <Compound>
Cc1cccc(N2C(=O)[C@H]3[C@H](ON4[C@@H]3C(=O)N(C)[C@@]43C[C@H](C)CC[C@H]3C(C)C)C2=O)c1

>  <Label>
1

$$$$

Reported Activity reaches at least 70% for CC(C)[C@@H]1CC[C@@H](C)C[C@@]12N(C)C(=O)[C@@H]1[C@H]3C(=O)N(C)C(=O)[C@H]3ON12 ?
0

Assess whether reported Activity for Cc1cc(C(C)(C)C)c(O)c(C(C)(C)C)c1 [BUTYLATED HYDROXYTOLUENE] sits at 70% or higher.
1

Identify whether the reported Activity of the following compound is 70% or greater: CC(C)[C@@H]1CC[C@@H](C)C[C@@]12N(C)C(=O)[C@@H]1[C@H]3C(=O)N(c4ccccc4)C(=O)[C@H]3ON12
1
